Assay: growth suppression of yeast trafficking mutant, preliminary HTS, modulators of trafficking downstream of Golgi apparatus project, 1536-format plate, OD 615 nm (AID 637)
Conditions: yeast transport mutant growth, absorbance 615 nm, 18 h; stronger effect = higher value
Measured inhibition accompanies every entry in the list below.
Please state the figure in %; there is no need to write the unit.

Example cases with answers are listed next.
{"columns": ["Compound", "inhibition [%]"],
 "data": [
  ["N#Cc1c(-c2ccc3c(c2)OCO3)csc1N", 4.73],
  ["CC(C)OC(=O)CSc1nnc(-c2ccccn2)n1-c1ccccc1", -9.52],
  ["O=C(O)C1CCCN1c1ncnc2c1oc1ccccc12 (stereo unspecified)", -7.1],
  ["Cc1noc(NS(=O)(=O)c2ccc(N)cc2)c1C", -1.5],
  ["CCOC(=O)C1CCCN(Cc2nc(N)nc(Nc3ccccc3)n2)C1 (stereo unspecified)", 0.32],
  ["Nn1cc(-c2ccccc2)nc1SCC(=O)N1CCN(S(=O)(=O)c2ccccc2)CC1", -6.56],
  ["CNC(=O)CSc1nc2c(c(=O)n(C)c(=O)n2C)n1Cc1ccc(C)cc1", -7.45],
  ["CC(C)c1nc(N2CCN(C(=O)c3ccco3)CC2)c2c3c(sc2n1)CCCC3", 20.9]
]}

Return reported inhibition; argument: "CCOc1ccc(NS(=O)(=O)c2ccc(OCC(=O)N3CCCC3)cc2)cc1"
-4.84

Return reported inhibition; argument: "O=C(c1ccc(Br)o1)N1CCN(c2ccc3nnc(-c4ccccc4)n3n2)CC1"
-0.67

Return reported inhibition; argument: "O=C(NC1=NCCS1)c1ccc2c(c1)C(=O)N(Cc1ccco1)C2=O"
4.73

---

Assay: reversal of MRP1-mediated doxorubicin resistance, pilot screen, H69AR cells, doxorubicin co-treatment (AID 601)
Conditions: H69AR cells, CellTiter-Glo, 72 h; compound alone cytotoxicity; at 10 µM
Measured viability accompanies every entry in the list below.
Please state the figure in %; there is no need to write the unit.

Example cases with answers are listed next.
{"columns": ["Molecule", "Experimental result"],
 "data": [
  ["O=P(CCNCc1ccco1)(c1ccccc1)c1ccccc1", 97.4],
  ["C=CCN(CC=C)C(=O)Nc1cc(Cl)ccc1OC", 96.9],
  ["COC(=O)c1ccc2c(=O)n(Cc3ccco3)c(SCC(=O)Nc3ccc(C)c(Cl)c3)nc2c1", 8.06]
]}

Return reported viability; argument: "COCCCn1c(SCC(=O)N2CCc3ccccc32)nnc1-c1ccoc1C"
98.4

Return reported viability; argument: "CCN1C(=O)/C(=C/N(C)c2ccccc2)OC1=S"
93.7

Return reported viability; argument: "Cc1ccc(NC(=O)COc2nc(C)cs2)cc1"
91.5

Return reported viability; argument: "Nc1ncnc2nc(Sc3ccc(Cl)cc3)[nH]c12"
98.6

---

Assay: reversal of MRP1-mediated doxorubicin resistance, pilot screen, H69AR cells, doxorubicin co-treatment (AID 601)
Settings: H69AR cells, CellTiter-Glo, 72 h; compound alone cytotoxicity; at 10 µM
Quantity kind: viability (%)
Please state the figure in %; there is no need to write the unit.

Example cases with answers are listed next.
{"columns": ["Sample smiles", "Unit symbol", "viability"],
 "data": [
  ["c1ccc(-c2nn3nnnc3c3ccccc23)cc1", "%", 90.8],
  ["CC(=O)Nc1ccn(-c2ccccc2)n1", "%", 93.6],
  ["CCO/C([O-])=N/c1c[n+](N2CCOCC2)no1", "%", 86.7],
  ["CC(=O)c1n[nH]nc1NC(=O)c1ccccc1", "%", 89.9],
  ["Cc1c(O)c(CN2CCCCC2)cc2c3c(c(=O)oc12)CCC3", "%", 82.2],
  ["C=CCN1C(=O)CS/C1=N/c1nccs1", "%", 98.4],
  ["COc1ccc(OC)c(NC(=O)CSc2nnc(-c3ccco3)n2-c2ccccc2)c1", "%", 90.4],
  ["O=C(c1ccco1)N1CCN(CCCCN2C(=O)c3ccccc3C2=O)CC1", "%", 79.9],
  ["COC(=O)CSc1nc2sc3c(c2c(=O)n1C1CCCCC1)CCN(C)C3", "%", 95],
  ["CCOC(=O)C1CCN(C(=O)Nc2ccc(Cl)cc2Cl)CC1", "%", 104]
]}

Return reported viability; argument: "CC(=O)c1c(C)[nH]c(C(=O)Nc2c(C)n(C)n(-c3ccccc3)c2=O)c1C"
90.2

Return reported viability; argument: "COC(=O)CNC(=O)COC(=O)c1cc(Cl)cc(Cl)c1N"
92.6

---

Assay: reversal of MRP1-mediated doxorubicin resistance, pilot screen, H69AR cells, doxorubicin co-treatment (AID 601)
Conditions: H69AR cells, CellTiter-Glo, 72 h; compound alone cytotoxicity; at 10 µM
Measured viability accompanies every entry in the list below.
Please state the figure in %; there is no need to write the unit.

Example cases with answers are listed next.
{"columns": ["Molecule", "viability / %"],
 "data": [
  ["O=C(O)c1cc(-c2ccccc2)nc2ccccc12", 76.7],
  ["CCN(CC)CCOC(=O)c1ccc(NC(=O)COc2cc(=O)n(CC)c3ccccc23)cc1", 109],
  ["COc1ccc(C2C3=C(CCCC3=O)Nc3nc(SCc4ccccc4)nn32)cc1OC (stereo unspecified)", 74.9]
]}

Here is the next item to consider.
Return reported viability; argument: "CCOC(=O)Cn1nnnc1CN(Cc1ccc(OC)cc1)Cc1cc2cc(C)cc(C)c2[nH]c1=O"
89.4

---

Experiment: reversal of MRP1-mediated doxorubicin resistance, pilot screen, H69AR cells, doxorubicin co-treatment (AID 601)
Details: H69AR cells, CellTiter-Glo, 72 h; compound alone cytotoxicity; at 10 µM
Label 1 (yes) when viability is strictly below 90%; otherwise label 0 (no).

Sample answers from the record:
{"columns": ["Compound", "Label value"],
 "data": [
  ["O=C(Nc1nc2ccc(S(=O)(=O)N3CCCC3)cc2s1)C1CCCO1 (stereo not drawn)", "0 (no)"],
  ["O=C(Nc1ccc(Cl)cc1C(=O)O)c1ccc2c(c1)C(=O)N(Cc1ccco1)C2=O", "0 (no)"],
  ["Cc1ccc(O)c(-c2cc3ccccc3[nH]2)c1", "1 (yes)"]
]}

Please determine if "COc1cc(NC(=O)Cc2ccccc2OC)cc(OC)c1" is below 90% in terms of viability.
0 (no)

Please determine if "CCOC(=O)/C=C(\C)Sc1cc(=O)oc2ccccc12" is below 90% in terms of viability.
1 (yes)

Please determine if "CC(=O)c1c(C)[nH]c(C(=O)NC2=NCCS2)c1C" is below 90% in terms of viability.
0 (no)

Please determine if "Cc1sc2nc(SCC(=O)NCc3ccco3)n(CCc3ccccc3)c(=O)c2c1C" is below 90% in terms of viability.
1 (yes)

---

Experiment: reversal of MRP1-mediated doxorubicin resistance, pilot screen, H69AR cells, doxorubicin co-treatment (AID 601)
Settings: H69AR cells + 2 uM doxorubicin, CellTiter-Glo, 72 h; measured here: viability with 2 uM doxorubicin; at 10 µM; stronger effect = lower value
Quantity kind: viability (%)
Please state the figure in %; there is no need to write the unit.

Return reported viability; argument: "Cc1cc(NC(=O)C2CCCC2)nc2c1c(=O)oc1ccccc12"
87.8

Return reported viability; argument: COCC(=O)Nc1sc2c(c1C(=O)OC)CCC(C)C2 (stereo unspecified)
90.3

Return reported viability; argument: "COc1ccccc1NC(=O)CSc1nnc(-c2ccncc2)o1"
91.2

Return reported viability; argument: CCOC(=O)C1CCCN(C(=O)c2cc3c(-c4cccc(OC)c4)nn(C)c3s2)C1 (stereo unspecified)
82.2

Return reported viability; argument: "CCOC(=O)c1ccc(COC(=O)c2cc3ccccc3oc2=O)o1"
93.1

---

Assay: 384-well plate pilot, post-Golgi transport modulator project, inhibition of yeast transport mutant growth (AID 636)
Details: absorbance 615 nm, about 18 h, stronger effect = higher value
Quantity kind: inhibition (%)
Please state the figure in %; there is no need to write the unit.

Example cases with answers are listed next.
{"columns": ["Molecule", "Quantity kind", "Experimental result"],
 "data": [
  ["CN1CCN(c2ncnc3c2cnn3-c2ccc(Cl)cc2)CC1", "inhibition", -0.27],
  ["O=C(NCc1cccnc1)c1ccc(Cl)c(Cl)c1", "inhibition", -1.33],
  ["CC(=O)c1c(C)[nH]c(C(=O)Nc2c(C)n(C)n(-c3ccccc3)c2=O)c1C", "inhibition", -8.63],
  ["O=C(CN1CCN(c2nc(-c3ccc(Cl)cc3)cs2)CC1)NCc1ccco1", "inhibition", -5.07],
  ["CC(C)NCC(O)COc1ccc(CCOCC2CC2)cc1 (configuration not stated)", "inhibition", -0.91]
]}

Return reported inhibition; argument: "CCc1nc(SCc2cc(Cl)ccc2OC)n[nH]1"
-0.68

Return reported inhibition; argument: "Nc1nc(-c2ccc(Cl)cc2)nn1C(=O)c1cccnc1"
0.13

Return reported inhibition; argument: "CC(=O)Nc1ccc2nc(-c3cccnc3)[nH]c2c1"
3.51

Return reported inhibition; argument: "O=C(CSc1n[nH]c(-c2ccco2)n1)Nc1sc2c(c1C(=O)Nc1ccccc1)CCCC2"
-4.42

Return reported inhibition; argument: "Nc1nc(C(=O)N2CCOCC2)nn1S(=O)(=O)c1ccc(Cl)cc1"
-1.3

Return reported inhibition; argument: "O=C(O)CSc1ncn[nH]1"
-6.58

Return reported inhibition; argument: "CC(=O)Nc1ccc(S(=O)(=O)n2cnc(C)c2)cc1"
-0.53
